biological target: Gal3 (Human Galectin-3) in THP-1 cells (Homo sapiens); construct: host or cells: THP-1; experiment: ELISA Gal3 Degradation Assay in THP-1 Cells; assay type: cell-based; settings: 48 hours, culture media Gal3 by ELISA, test 2, read-out: Supernatant (IC50) test 2
Sequence (P17931 whole entry): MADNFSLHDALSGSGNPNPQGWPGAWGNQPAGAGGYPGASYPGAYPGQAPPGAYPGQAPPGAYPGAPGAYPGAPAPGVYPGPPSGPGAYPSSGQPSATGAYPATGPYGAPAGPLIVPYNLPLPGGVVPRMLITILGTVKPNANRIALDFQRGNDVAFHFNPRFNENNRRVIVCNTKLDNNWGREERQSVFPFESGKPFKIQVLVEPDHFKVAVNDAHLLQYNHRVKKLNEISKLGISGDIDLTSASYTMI
For each entry below, report its log10 IC50 value.
Note: values are log10 of IC50 expressed in nM.

# input molecule: Cc1nc([C@@H]2O[C@H](CO)[C@H](O)[C@H](n3cc(-c4cc(F)c(Cl)c(F)c4)nn3)[C@H]2OCC(=O)N2CC(COc3ccc(C(=O)Nc4cccc5c4CN(C4CCC(=O)NC4=O)C5=O)nc3)C2)n(-c2cc(Cl)ccc2C(F)(F)F)n1 (some centres unmarked) [Example 32] ; wanted: its log10 IC50
3.20

# input molecule: Cc1nc([C@@H]2O[C@H](CO)[C@H](O)[C@H](n3cc(-c4cc(F)c(Cl)c(F)c4)nn3)[C@H]2OCC(=O)N2CC(Oc3ccc(C(=O)Nc4ccc5c(c4)CN(C4CCC(=O)NC4=O)C5=O)nc3)C2)n(-c2cc(Cl)ccc2C(F)(F)F)n1 (some centres unmarked) [Example 35] ; wanted: its log10 IC50
2.53

# input molecule: Cc1nc([C@@H]2O[C@H](CO)[C@H](O)[C@H](n3cc(-c4cc(F)c(Cl)c(F)c4)nn3)[C@H]2OCC(=O)N[C@H]2C[C@@H](Oc3ccc(C(=O)Nc4ccc5c(c4)CN(C4CCC(=O)NC4=O)C5=O)nc3)C2)n(-c2cc(Cl)ccc2C(F)(F)F)n1 (some centres unmarked) [Example 4] ; wanted: its log10 IC50
1.98

# input molecule: Cc1nc([C@@H]2O[C@H](CO)[C@H](O)[C@H](n3cc(-c4cc(F)c(Cl)c(F)c4)nn3)[C@H]2OCC(=O)N2CC(Oc3ccc(C(=O)Nc4ccc5c(c4)CN(C4CCC(=O)NC4=O)C5=O)cc3)C2)n(-c2cc(Cl)ccc2C(F)(F)F)n1 (some centres unmarked) [Example 8] ; wanted: its log10 IC50
1.58

# input molecule: Cc1nc([C@@H]2O[C@H](CO)[C@H](O)[C@H](n3cc(-c4cc(F)c(Cl)c(F)c4)nn3)[C@H]2OCC(=O)N[C@H]2C[C@@H](Oc3ccc(C(=O)Nc4ccc5c(c4)CN(C4CCC(=O)NC4=O)C5=O)cc3)C2)n(-c2cc(Cl)ccc2C(F)(F)F)n1 (some centres unmarked) [Example 3] ; wanted: its log10 IC50
1.68

# input molecule: Cc1nc([C@@H]2O[C@H](CO)[C@H](O)[C@H](n3cc(-c4cc(F)c(Cl)c(F)c4)nn3)[C@H]2OCC(=O)N2CC(COc3ccc(C(=O)Nc4cccc5c4CN(C4CCC(=O)NC4=O)C5=O)cc3)C2)n(-c2cc(Cl)ccc2C(F)(F)F)n1 (some centres unmarked) [Example 30] ; wanted: its log10 IC50
1.70

###

For each entry below, report its pIC50 value.
biological target: hCRBN (NanoLuc-CRBN fusion construct in HEK-293 cells) (Homo sapiens, UniProt Q96SW2); experiment: CRBN BRET Target Engagement; conditions: NanoLuc-CRBN transfected HEK-293 cells, BRET with CRBN Probe
Reminder that pIC50 is minus the log10 of a molar concentration.

# input compound: Cc1nc([C@@H]2O[C@H](CO)[C@H](O)[C@H](n3cc(-c4cc(F)c(Cl)c(F)c4)nn3)[C@H]2OCC(=O)N2CCC(COc3ccc(C(=O)Nc4ccc5c(c4)CN(C4CCC(=O)NC4=O)C5=O)cc3)CC2)n(-c2cc(Cl)ccc2C(F)(F)F)n1 (stereo partly shown) ; wanted: its pIC50
6.43

# input compound: Cc1nc([C@@H]2O[C@H](CO)[C@H](O)[C@H](n3cc(-c4cc(F)c(Cl)c(F)c4)nn3)[C@H]2OCC(=O)NCCOCCOCCNC(=O)c2ccc3c(c2)C(=O)N(C2CCC(=O)NC2=O)C3=O)n(-c2cc(Cl)ccc2C(F)(F)F)n1 (stereo partly shown) ; wanted: its pIC50
5.82

# input compound: Cc1nc([C@@H]2O[C@H](CO)[C@H](O)[C@H](n3cc(-c4cc(F)c(Cl)c(F)c4)nn3)[C@H]2OCC(=O)NCc2ccc(C(=O)Nc3ccc4c(c3)CN(C3CCC(=O)NC3=O)C4=O)cc2)n(-c2cc(Cl)ccc2C(F)(F)F)n1 (stereo partly shown) ; wanted: its pIC50
6.57

# input compound: Cc1nc([C@@H]2O[C@H](CO)[C@H](O)[C@H](n3cc(-c4cc(F)c(Cl)c(F)c4)nn3)[C@H]2OCC(=O)N2CC(COc3ccc(C(=O)Nc4cccc5c4CN(C4CCC(=O)NC4=O)C5=O)cc3)C2)n(-c2cc(Cl)ccc2C(F)(F)F)n1 (stereo partly shown) ; wanted: its pIC50
4.97

###

For each entry below, report its IC50 value.
target: hCRBN (NanoLuc-CRBN fusion construct in HEK-293 cells) (Homo sapiens); assay: CRBN BRET Target Engagement; conditions: NanoLuc-CRBN transfected HEK-293 cells, BRET with CRBN Probe
The figure you give is taken to be in nM; do not add the unit.

# input compound: Cc1nc([C@@H]2O[C@H](CO)[C@H](O)[C@H](n3cc(-c4cc(F)c(Cl)c(F)c4)nn3)[C@H]2OCC(=O)N2CC(Oc3ccc(C(=O)Nc4ccc5c(c4)CN(C4CCC(=O)NC4=O)C5=O)cc3)C2)n(-c2cc(Cl)ccc2C(F)(F)F)n1 (stereo partly drawn) ; wanted: its IC50
1420

# input compound: Cc1nc([C@@H]2O[C@H](CO)[C@H](O)[C@H](n3cc(-c4cc(F)c(Cl)c(F)c4)nn3)[C@H]2OCC(=O)N2CC3(CC(COc4ccc(C(=O)Nc5ccc6c(c5)CN(C5CCC(=O)NC5=O)C6=O)cc4)C3)C2)n(-c2cc(Cl)ccc2C(F)(F)F)n1 (stereo partly drawn) ; wanted: its IC50
350

# input compound: Cc1nc([C@@H]2O[C@H](CO)[C@H](O)[C@H](n3cc(-c4cc(F)c(Cl)c(F)c4)nn3)[C@H]2OCC(=O)N2CC(Oc3ccc(C(=O)Nc4ccc5c(c4)CN(C4CCC(=O)N(C)C4=O)C5=O)cc3)C2)n(-c2cc(Cl)ccc2C(F)(F)F)n1 (stereo partly drawn) ; wanted: its IC50
10400

###

For each entry below, report its pIC50 value.
target: His-tagged recombinant human Gal-3 (hGal-3) (Homo sapiens); assay: Gal-3 HTRF assay (His-tagged hGal-3 / B-ASF); conditions: 15 nM hGal-3, 15 nM B-ASF
Sequence (P17931 whole entry): as above
Reminder that pIC50 is minus the log10 of a molar concentration.

# input compound: Cc1nc([C@@H]2O[C@H](CO)[C@H](O)[C@H](n3cc(-c4cc(F)c(Cl)c(F)c4)nn3)[C@H]2OCC(=O)N[C@H]2C[C@@H](Oc3ccc(C(=O)Nc4ccc5c(c4)C(=O)N(C4CCC(=O)NC4=O)C5)nc3)C2)n(-c2cc(Cl)ccc2C(F)(F)F)n1 (stereo partly drawn) [Example 23] ; wanted: its pIC50
7.38

# input compound: Cc1nc([C@@H]2O[C@H](CO)[C@H](O)[C@H](n3cc(-c4cc(F)c(Cl)c(F)c4)nn3)[C@H]2OCC(=O)N2CC(COc3ccc(C(=O)Nc4cccc5c4CN(C4CCC(=O)NC4=O)C5=O)cc3)C2)n(-c2cc(Cl)ccc2C(F)(F)F)n1 (stereo partly drawn) [Example 30] ; wanted: its pIC50
7.07

# input compound: Cc1nc([C@@H]2O[C@H](CO)[C@H](O)[C@H](n3cc(-c4cc(F)c(Cl)c(F)c4)nn3)[C@H]2OCC(=O)N[C@H]2C[C@@H](Oc3ccc(C(=O)Nc4ccc5c(c4)CN([C@@H]4CCC(=O)NC4=O)C5=O)nc3)C2)n(-c2cc(Cl)ccc2C(F)(F)F)n1 [Example 6] ; wanted: its pIC50
7.13

# input compound: Cc1nc([C@@H]2O[C@H](CO)[C@H](O)[C@H](n3cc(-c4cc(F)c(Cl)c(F)c4)nn3)[C@H]2OCC(=O)NCCOCC(=O)N[C@H](C(=O)N2C[C@H](O)C[C@H]2C(=O)NCc2ccc(-c3scnc3C)cc2)C(C)(C)C)n(-c2cc(Cl)ccc2C(F)(F)F)n1 [Example 20] ; wanted: its pIC50
7.30

# input compound: Cc1nc([C@@H]2O[C@H](CO)[C@H](O)[C@H](n3cc(-c4cc(F)c(Cl)c(F)c4)nn3)[C@H]2OCC(=O)N2CC(Oc3ccc(C(=O)Nc4ccc5c(c4)CN(C4CCC(=O)N(C)C4=O)C5=O)cc3)C2)n(-c2cc(Cl)ccc2C(F)(F)F)n1 (stereo partly drawn) [Example 28] ; wanted: its pIC50
7.01

# input compound: Cc1nc([C@@H]2O[C@H](CO)[C@H](O)[C@H](n3cc(-c4cc(F)c(Cl)c(F)c4)nn3)[C@H]2OCC(=O)NCCOCC(=O)Nc2ccc3c(c2)CN(C2CCC(=O)NC2=O)C3=O)n(-c2cc(Cl)ccc2C(F)(F)F)n1 (stereo partly drawn) [Example 1] ; wanted: its pIC50
7.09
